- System under test: Plasmodium falciparum protein kinase 6 (PK6, PF3D7_1337100) (UniProt Q8IDW1)
- Test description: PfPK6 kinase inhibitors, biochemical, TCAMS library (AID 1159586)
- Assay context: recombinant PfPK6, Kinase-Glo ATP depletion luminescence
Potency and affinity values are given separately. The source made the active and inactive calls. The rule behind the calls is not given here.
Readout: outcome

compound Oc1c(CN2CCCC(C(F)(F)F)C2)cc(Cl)c2ccccc12 (stereo not given) , outcome observed: inactive

# outcome (compound: O=C(NCc1cccnc1)C(c1cc2ccccc2o1)N1CCN(C(c2ccccc2)c2ccccc2)CC1 (stereo not given) ) is inactive

outcome reading for CCCCCCNC(=O)C1Cc2c([nH]c3ccc(Br)cc23)C2(CCN(CCc3ccccc3)CC2)N1 (stereo not given) : inactive

The reported outcome of the compound O=S(=O)(NC1CCN(c2ccnc3cc(Cl)ccc23)C1)c1ccc(C(F)(F)F)cc1 (stereo not given) was inactive

Here is another compound to look at.
// outcome value for CC(=O)Nc1cccc(C(=O)Nc2ccc(-c3cccc(-c4nc5ccc(C(F)(F)F)cc5[nH]4)c3)cc2)c1 : inactive

---

- System under test: Calcium-dependent protein kinase 1 (Plasmodium falciparum (isolate 3D7))
- Test description: PfCDPK1 kinase inhibitors, biochemical, TCAMS library (AID 1159585);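 note: inhibitors leave more ATP so luminescence rises with inhibition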
- Assay context: recombinant PfCDPK1, Kinase-Glo ATP depletion luminescence
Results with a measured potency or affinity are listed apart. Active and inactive are the calls of the source. The limit is not given here; nearly all actives have IC50 up to about 0.98 µM.
Readout: outcome

Reference set (4 entries):
Reported Calcium-dependent protein kinase 1 (Plasmodium falciparum (isolate 3D7)) outcome for item COc1ccc(OCC(O)CN(Cc2ccccc2OC)C(=O)Nc2ccc(Br)cc2)cc1 (stereo not given) was inactive

Record for CC(=O)NC(c1cccs1)c1cc(Cl)c2cccnc2c1O (stereo not given) under target or system Calcium-dependent protein kinase 1 (Plasmodium falciparum (isolate 3D7)): outcome reported as inactive

GET /values?item= Cc1nn(-c2ccccc2)c2sc(C(=O)N(CCCN(C)C)c3nc(-c4ccccc4)cs3)cc12 &system= Calcium-dependent protein kinase 1 (Plasmodium falciparum (isolate 3D7)) returns outcome: inactive

Let me check: COc1cc(OC)cc(-c2nnc(Sc3ccc(C#N)c([N+](=O)[O-])c3)n2C)c1 , system Calcium-dependent protein kinase 1 (Plasmodium falciparum (isolate 3D7)), measured outcome is inactive

// for each compound below, give its outcome
1. CC1(CCCCN2CCC(Cc3ccccc3)CC2)C(=O)Nc2ccccc21 (stereo not given)
2. OC(CNCc1ccccc1Oc1ccccc1)c1cc(Br)cs1 (stereo not given)

["inactive", "inactive"]

Hi, could you look up outcome for each item in my list?
1. Cc1cc(N(C)C)nc(Nc2ccc(NC(=O)C(C)Oc3ccccc3)cc2)n1 (stereo not given)
2. Clc1ncnc2ncn(Cc3cccc(Br)c3)c12

["inactive", "inactive"]

Parameters: items (list). Returns: outcome for each item.
1. NC(=O)C1CCN(Cc2ccc(-c3ccc(-c4nc5ccc(C(F)(F)F)cc5[nH]4)cc3)cc2)CC1
2. Cc1cc(N)nc2ccc(-c3cccc(CN)c3)cc12

inactive
inactive

---

- System under test: Calcium-dependent protein kinase 4 (Plasmodium falciparum (isolate 3D7))
- Test description: PfCDPK4 kinase inhibitors, biochemical, TCAMS library (AID 1159588)
- Assay context: recombinant PfCDPK4, Kinase-Glo ATP depletion luminescence
Measured potencies and affinities stand elsewhere. Calls of active or inactive are those of the source. No cut-off is given here; in the data, nearly all actives have IC50 up to about 0.91 µM.
Readout: outcome

Example compounds with recorded outcome:
Consider CN(C)CCOc1ccc(-c2cc(-c3ccc(Cl)c(O)c3)c(-c3ccncc3)o2)cc1 . Its measured outcome is inactive

# compound CCOC(=O)C1=C(C)NC2=C(C(=O)CC(C)(C)C2)C1c1ccc(Cl)cc1 (centres undefined) ; its outcome = inactive

Per the record, O=C(Nc1ccc(Cn2ncc(N3CCCNCC3)c(Cl)c2=O)cc1)Nc1cccc(SC(F)(F)F)c1 has outcome of inactive

So for COc1ccc2nc(-c3ccccc3)cc(NN=Cc3ccc([N+](=O)[O-])cc3)c2c1 , the logged outcome turned out to be inactive

Provide the reported outcome of each entry below, same order.
1. COc1ccccc1-n1ccnc1SCC(=O)Nc1cc(C(F)(F)F)ccc1Cl
2. NC(N)=NCCCN(Cc1ccccc1)c1ccc(Cl)cc1
3. Cc1nnc2c(NC(=O)/C=C/c3ccc(OC(F)(F)F)cc3)cc3cc(Cl)ccc3n12
4. CCOC(=O)c1ccc(NC(=O)N[C@@H](Cc2ccccc2)C(=O)NC2CCN(Cc3ccc(O)c(OC)c3)C2)cc1 (some centres undefined)
5. O=C(CN1CCN(S(=O)(=O)C=Cc2ccccc2)CC1)Nc1cc(C(F)(F)F)ccc1Cl

inactive
inactive
inactive
inactive
inactive

---

Kindly state inhibition for each of the entries shown.
- Test description: human hepatoma cell viability loss – ATP luminescence, cytotoxicity control for P. falciparum antimalarial project, primary screen (AID 2303);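 note: 0% = DMSO wells and 100% = digitonin-killed cells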
- Assay context: HepG2 viability, 24-48 h, at 10 µM, active compounds read high
Active and inactive are the calls of the source.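 Rule for the calls: active = inhibition above 50%; inactive = the rest.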

inhibition reading for CN(C)c1ccc(-c2csc(C(=O)NC3CCN(CCC(C)(C)C)C3)c2)cc1 (stereo not given) : 20% (inactive)

Just so you know, measured inhibition for CC(C)(C)Oc1ccc(CC2NC3(C(=O)N(Cc4ccc(C(C)(C)C)cc4)c4ccccc43)C3C(=O)N(c4ccc(Br)cc4)C(=O)C23)cc1 (stereo not given) came out at 24% (inactive)

Value of measured inhibition for the entry Cc1cnc(NC(=O)c2cn(-c3ccccc3)nc2-c2cccs2)s1 : -5% (inactive)

For reference, reported inhibition for NC(=O)c1cccc(Nc2nccc(Nc3ccc(Oc4ccc5ccccc5c4)cc3)n2)c1 stands at 15% (inactive)

Switching to the query record.
The reported inhibition of the compound COc1ccc(-c2ccc(NC(=O)c3cccc(Cl)c3)c(F)c2)cc1CN1CCCN(C)CC1 was 43% (inactive)

---

Provide the recorded growth inhibition for the entries that follow.
- Test description: inhibition of 3D7 malaria parasite growth – strain 3D7 (AID 2306);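 note: 0% = DMSO wells and 100% = chloroquine plus artemisinin control wells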
- Assay context: P. falciparum 3D7 erythrocytic growth, LDH absorbance, 72 h; at 2 µM; active compounds read high
Give bare numbers, in %.

Entry O=c1cc(N2CCNCC2)c(Cl)nn1Cc1ccc(NS(=O)(=O)c2ccc(Oc3ccccc3)cc2)cc1 — recorded growth inhibition = 102

Entry CNC(=O)Cc1ccc(C(=O)Nc2cccc(-c3cccc(-c4nc5ccc(C(F)(F)F)cc5[nH]4)c3)c2)cc1 — recorded growth inhibition = 95

growth inhibition in this record for CC(=O)Nc1ncc(C(=O)Nc2ccc(-c3cccc(-c4nc5ccc(C(F)(F)F)cc5[nH]4)c3)cc2)s1 : 101

List the reported growth inhibition of each molecule below.
1. O=C(Nc1cccc(CN2CCCN(Cc3cccc(Cl)c3)CC2)c1)c1ccc(Cl)c(Cl)c1
2. CC(=O)Nc1nc(C(=O)Nc2ccc(-c3cccc(-c4nc5ccccc5[nH]4)c3)cc2)cs1

89
99

Hi there! I need growth inhibition for each item below, if you can.
1. COc1ccc(-c2cccc(NC(=O)c3ccc(C#N)cc3)c2)cc1CN1CCCC1
2. CCc1ccccc1N1CCN(CCCC(=O)c2ccc(NC(=O)c3cc(Cl)cc(Cl)c3)cc2)CC1
3. O=C(Nc1ccc(C(F)(F)F)cc1)N[C@H]1CCN(CCCCCNC(=O)[C@@H]2C[C@H]2c2ccc(Cl)c(Cl)c2)C1

1. 98
2. 99
3. 96

---

- System under test: L-lactate dehydrogenase (Plasmodium falciparum (isolate CDC / Honduras)) (UniProt Q27743)
- Sequence (Q27743 whole entry, looked up): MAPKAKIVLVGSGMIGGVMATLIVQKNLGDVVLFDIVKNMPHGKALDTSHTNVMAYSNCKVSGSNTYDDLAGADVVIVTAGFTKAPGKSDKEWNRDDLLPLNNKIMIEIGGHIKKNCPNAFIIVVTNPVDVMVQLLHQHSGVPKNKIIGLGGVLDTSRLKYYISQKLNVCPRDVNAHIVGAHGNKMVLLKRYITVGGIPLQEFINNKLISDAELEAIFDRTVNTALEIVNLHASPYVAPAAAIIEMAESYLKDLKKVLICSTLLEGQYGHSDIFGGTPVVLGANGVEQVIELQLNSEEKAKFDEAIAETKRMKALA
- Test description: PfLDH activity inhibition – cell lysate, 3D7 strain, counter-screen for P. falciparum growth inhibition project (AID 2304);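 note: 0% = vehicle and 100% = reference inhibitor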
- Assay context: P. falciparum 3D7 crude extract, LDH APAD/NBT absorbance; at 2 µM; active compounds read high
Please go through the items and note down their inhibition.
One number for each entry, in %.

Below, each entry is followed by its recorded inhibition result.
Form: compound = O=C(/C=C/c1ccc(Cl)c(Cl)c1)NCCCCCN1CCC(NC(=O)c2ccc3ccccc3c2)CC1 ; inhibition = -2

// field: inhibition; key: Cc1[nH]c(C)c(-c2ccc(-c3ccc(C(F)(F)F)cc3C(F)(F)F)nc2)c(=O)c1Br ; value = 5

What the record says about CCCCCC(C)C(C)c1cc(O)c2c(c1)OC(C)(C)CC2(O)c1ccnn1C (centres undefined) : inhibition is 4

Provide inhibition values for the following items, in order.
1. O=[N+]([O-])c1cccc(C=NNc2ccnc3ccc(C(F)(F)F)cc23)c1
2. Cc1cccc2[nH]c(-c3ccc(-c4cccc(CNCC5CCCO5)c4)cc3)nc12 (centres undefined)
3. CC1CCCN1Cc1cccc(-c2ccc(C(=O)NCCOc3ccccc3)s2)c1 (centres undefined)
4. CCc1cc2c3c(N)nc(N)nc3ccc2n1CC

-2
-5
-3
-1

---

- Test description: human hepatoma cell viability loss – ATP luminescence, cytotoxicity control for P. falciparum antimalarial project, primary screen (AID 2303);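 note: 0% = DMSO wells and 100% = digitonin-killed cells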
- Assay context: HepG2 viability, 24-48 h, at 10 µM, active compounds read high
The source made the active and inactive calls.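 The calls were made as follows: active = inhibition above 50%; inactive = the rest.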
Readout: inhibition

Examples from the recorded data:
What the record says about NC(=O)C1CCN(Cc2ccc(-c3cccc(-c4nc5ccc(F)cc5[nH]4)c3)cc2)CC1 : inhibition is 10% (inactive)

Record Cc1cc(N[C@@H](CC(C)C)C(=O)Nc2ccccc2)nc(NCC2CCCCC2)n1 . Reported inhibition: 8% (inactive)

Kindly note the recorded inhibition for N=C(N)c1ccc(C(=O)Nc2cccc(C(=N)N)c2)cc1 , which is 13% (inactive)

Working through the 6 compounds below one at a time, give inhibition for each.
1. NC1CCN(CCc2ccc(NS(=O)(=O)c3cccc4ccccc34)cc2)CC1
2. Cc1ccc2[nH]c3ccccc3c(=O)c2c1
3. Cc1ccc2[nH]c(-c3ccc(C(=O)NC4CCN(Cc5ccccc5)CC4)cc3)nc2c1C
4. CCCN1CCN(c2cc(S(=O)(=O)Nc3ccc(C(=O)NCc4cccc(C(F)(F)F)c4)cc3)ccc2OC)CC1
5. CS(=O)(=O)c1cc2c(Nc3ccc(N4CCOCC4)cc3)c(C(N)=O)cnc2cc1Br
6. Cc1ccccc1C1CCN(C2CCC(NC(=O)/C=C/c3cc(F)ccc3F)CC2)CC1 (stereo not given)

["21% (inactive)", "-4% (inactive)", "22% (inactive)", "27% (inactive)", "-18% (inactive)", "47% (inactive)"]
